Tested on: Escherichia coli
Test: Inhibition of BacLight Green labeled Escherichia coli adherence to human UEC after 1 hr by flow cytometry analysis
Format: functional, organism-based
Activity calls are given as the source filed them. The calls are words filed in the database; no cut-off is given here.
Please reply with one of these outcomes: yes (1) = active, no (0) = inactive

O=c1c(O)c(-c2cc(O)c(O)c(O)c2)oc2cc(O)cc(O)c12    yes (1)
Oc1cc(O)c2c(c1)O[C@H](c1ccc(O)c(O)c1)[C@H](O)[C@H]2c1c(O)cc(O)c2c1O[C@H](c1ccc(O)c(O)c1)[C@@H](O)C2    yes (1)

Kindly provide the recorded test outcome for the following compound: "O=C(/C=C/c1ccc(O)c(O)c1)O[C@@H]1C[C@](O)(C(=O)O)C[C@@H](O)[C@H]1O"
no (0)

Try the compound "O=c1c(O)c(-c2ccc(O)c(O)c2)oc2cc(O)cc(O)c12"
yes (1)

###

Test system: Escherichia coli
Assay: Bactericidal activity against BacLight Green labeled Escherichia coli up to 30 ug/ml
Type: ADME, organism-based
measuredEndpoint: Activity

Past entries and their recorded results:
Oc1cc(O)c2c(c1)O[C@@]1(c3ccc(O)c(O)c3)Oc3cc(O)c4c(c3[C@@H]2[C@H]1O)O[C@H](c1ccc(O)c(O)c1)[C@H](O)C4    Non-toxic
O=C(/C=C/c1ccc(O)c(O)c1)O[C@@H]1C[C@](O)(C(=O)O)C[C@@H](O)[C@H]1O    Non-toxic
O=c1c(O)c(-c2cc(O)c(O)c(O)c2)oc2cc(O)cc(O)c12    Non-toxic
O=c1c(O)c(-c2ccc(O)c(O)c2)oc2cc(O)cc(O)c12    Non-toxic
Oc1cc(O)c2c(c1)O[C@H](c1ccc(O)c(O)c1)[C@H](O)[C@H]2c1c(O)cc(O)c2c1O[C@H](c1ccc(O)c(O)c1)[C@H](O)[C@H]2c1c(O)cc(O)c2c1O[C@H](c1ccc(O)c(O)c1)[C@H](O)C2    Non-toxic

List reported Activity for each of these compounds:
1. Oc1cc(O)c2c(c1)O[C@H](c1ccc(O)c(O)c1)[C@H](O)[C@H]2c1c(O)cc(O)c2c1O[C@H](c1ccc(O)c(O)c1)[C@@H](O)C2
2. Oc1cc(O)c2c(c1)O[C@H](c1ccc(O)c(O)c1)[C@H](O)[C@H]2c1c(O)cc(O)c2c1O[C@H](c1ccc(O)c(O)c1)[C@H](O)C2

1. Non-toxic
2. Non-toxic

###

System: Escherichia coli
Assay: Inhibition of BacLight Green labeled Escherichia coli adherence to human UEC after 1 hr by flow cytometry analysis
Format: functional, organism-based
Activity calls are given as the source filed them. No cut-off for these calls is given here.
Please reply with one of these outcomes: active, inactive

// known answers, use as guide
Oc1cc(O)c2c(c1)O[C@H](c1ccc(O)c(O)c1)[C@H](O)[C@H]2c1c(O)cc(O)c2c1O[C@H](c1ccc(O)c(O)c1)[C@H](O)[C@H]2c1c(O)cc(O)c2c1O[C@H](c1ccc(O)c(O)c1)[C@H](O)C2 [PROCYANIDIN C1]    active
Oc1cc(O)c2c(c1)O[C@@]1(c3ccc(O)c(O)c3)Oc3cc(O)c4c(c3[C@@H]2[C@H]1O)O[C@H](c1ccc(O)c(O)c1)[C@H](O)C4 [PROANTHOCYANIDIN A2]    inactive

Continue with the next molecule.
Kindly provide the recorded test outcome for the following molecule: Oc1cc(O)c2c(c1)O[C@H](c1ccc(O)c(O)c1)[C@H](O)[C@H]2c1c(O)cc(O)c2c1O[C@H](c1ccc(O)c(O)c1)[C@H](O)C2 [PROCYANIDIN B2]
active
